B1: CLINT1 (parent)
chain: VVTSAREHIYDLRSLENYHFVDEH

variants of: B1; experiment: protein stability index of a GFP-peptide fusion (GPS, HEK-293T) (PSI 1-6); higher = more stable; conditions: c terminus: a fixed tail appended;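 note: lentivirally expressed fusions sorted by FACS into six bins by GFP to DsRed ratio, PSI derived from sequencing read proportions per bin multiplied by bin number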
Everything with protein stability index lower than 3 is criterion not met; everything else, including exactly 3, is criterion met.

Prompt: Determine whether this variant has protein stability index no lower than 3: "E7D"
Completion: criterion not met

Prompt: Same question for "D11Q" please.
Completion: criterion not met

Prompt: Same question for "L15T" please.
Completion: criterion met

Prompt: Same question for "V1Q" please.
Completion: criterion met

Prompt: Same question for "S4M" please.
Completion: criterion not met

Prompt: Same question for "N17P" please.
Completion: criterion met

Prompt: Same question for "S14A" please.
Completion: criterion met

Prompt: Same question for "S4D" please.
Completion: criterion met

Prompt: Same question for "Y18D" please.
Completion: criterion met

Prompt: Same question for "S14R" please.
Completion: criterion not met

Prompt: Same question for "S14L" please.
Completion: criterion not met

Prompt: Same question for "A5D" please.
Completion: criterion met

Prompt: Same question for "V1E" please.
Completion: criterion met

Prompt: Same question for "I9F" please.
Completion: criterion not met

Prompt: Same question for "A5M" please.
Completion: criterion not met

Prompt: Same question for "S14T" please.
Completion: criterion not met

Prompt: Same question for "E16K" please.
Completion: criterion not met

Prompt: Same question for "H19R" please.
Completion: criterion met

Prompt: Same question for "N17M" please.
Completion: criterion not met

Prompt: Same question for "D22S" please.
Completion: criterion not met

Prompt: Same question for "R13V" please.
Completion: criterion not met
